System: isolated rabbit urinary bladder
Test: Relaxation effect on potassium-induced contraction of isolated rabbit urinary bladder
Type: cell-based
Details: Oryctolagus cuniculus; 50% relaxation concentration; high-K+ (30 mM) pre-contracted rabbit bladder strips; relaxation as percentage of the maximum produced by 0.1 mM papaverine; read-out: EC50 value range
Readout kind: EC50

Record excerpt, results attached:
Query: Output EC50 of `Cn1c(-c2oc(-c3ccc(F)cc3)nc2CC(=O)O)cc2ccccc21`
Response: 1000 to 3000 nM

Query: Output EC50 of `COc1ccc(-c2nc(-c3cccs3)c(CC(=O)O)s2)cc1`
Response: 500 to 1000 nM

Query: Output EC50 of `COc1ccc(-c2nc(CC(=O)O)c(-c3ccc(F)c(F)c3)o2)cc1`
Response: 500 to 1000 nM

---
Query: Output EC50 of `Cc1nc(-c2ccc(F)cc2)[nH]c1-c1cccnc1`
Response: 500 to 1000 nM

Query: Output EC50 of Cl.N#CCCc1[nH]c(-c2ccc(F)cc2)nc1-c1ccccc1O [Preparation Example 350, hydrochloride]
Response: 1000 to 3000 nM

* * *

Where a name gives a salt, the structure may show the parent alone.
Readout kind: melting point

Record excerpt, results attached:
Query: Output melting point of CCOC(=O)Cc1nc(-c2cnc3occc3c2)oc1-c1ccc(Cl)s1 [Preparation Example 429]
Response: 145 to 146 °C

Query: Output melting point of CCCc1nc(C2CCC(=O)N2)[nH]c1-c1cccs1 (centres unmarked) (as salt: HCl) [Preparation example 4]
Response: 234 to 237 °C

Query: Output melting point of CCCc1nc(-c2ccc(F)cc2)[nH]c1-c1ccc(C#N)cc1 [Preparation example 95]
Response: 240 to 242 °C

Query: Output melting point of O=C(O)Cc1nc(-c2ccc(Cl)cc2)oc1-c1cccs1 [Preparation Example 192]
Response: 214 to 215 °C

Query: Output melting point of CCCc1nc(-c2ccc(C#N)cc2)[nH]c1-c1cccs1 (as salt: HCl) [Preparation example 8]
Response: 251 to 254 °C

Query: Output melting point of C[S+]([O-])Cc1[nH]c(-c2ccc(F)cc2)nc1-c1ccccc1 (centres unmarked) (as salt: HCl) [Preparation example 639]
Response: 203 to 204 °C

Query: Output melting point of CCCc1nc(-c2ccc(N(C)C)cc2)[nH]c1-c1cccs1 (as salt: HCl) [Preparation example 2]
Response: 170 to 172 °C

Query: Output melting point of O=C(O)Cc1nc(-c2ccc(F)cc2)oc1-c1cccs1 [Preparation Example 189]
Response: 208 to 209 °C

Here is the next item to consider.
Query: Output melting point of COc1ccccc1-c1c[nH]c(-c2ccc(F)cc2)n1 (as salt: hydrochloride) [Preparation example 66]
Response: 245 to 248 °C

* * *

System: rhythmic bladder contractions induced by substance P
Assay: Inhibitory effect on the rhythmic bladder contractions induced by substance P in anesthetized rats
Format: in vivo, rat
Details: time during which frequency of rhythmic contraction was completely inhibited, 0.25 mg/kg of the compound, substance P infusion
Readout kind: 100% inhibition time range

Query: Output 100% inhibition time range of CCc1nc(-c2ccc(F)cc2)[nH]c1-c1ccccc1 [Preparation example 61]
Response: A (A≧20>B≧10>C (minute))

Query: Output 100% inhibition time range of CSc1ccc(-c2nc(CC(=O)[O-])c(-c3cccs3)o2)cn1.[Na+] [Preparation Example 366]
Response: C (A≧20>B≧10>C (minute))

Query: Output 100% inhibition time range of CN(C)c1ncc(-c2nc(-c3cccs3)c(CC(=O)O)o2)cn1 [Preparation Example 505]
Response: B (A≧20>B≧10>C (minute))

Query: Output 100% inhibition time range of O=C(O)Cc1nc(-c2ccc3occc3c2)oc1-c1csc(Cl)c1 [Preparation Example 287]
Response: B (A≧20>B≧10>C (minute))

Query: Output 100% inhibition time range of Cc1ccc(-c2nc(CC(=O)O)c(-c3ccccc3)o2)cc1 [Preparation Example 262]
Response: C (A≧20>B≧10>C (minute))

Query: Output 100% inhibition time range of Cc1cc(-c2oc(-c3ccc(F)cc3)nc2CC(=O)O)sc1CO [Preparation Example 233]
Response: C (A≧20>B≧10>C (minute))

Query: Output 100% inhibition time range of CN(C)c1ccc(-c2nc(CC(=O)O)c(-c3ccc(Cl)s3)o2)cn1 [Preparation Example 260]
Response: A (A≧20>B≧10>C (minute))

Query: Output 100% inhibition time range of CCc1nc(-c2ccc(F)cc2)[nH]c1-c1ncccn1 [Preparation example 50]
Response: C (A≧20>B≧10>C (minute))

---
Query: Output 100% inhibition time range of CSc1ccc(-c2nc(CC(=O)O)c(-c3ccc(Cl)cc3)o2)cc1 [Preparation Example 455]
Response: B (A≧20>B≧10>C (minute))

Query: Output 100% inhibition time range of COCc1nc(-c2ccc(C#N)cc2)[nH]c1-c1ccccc1 [Preparation example 124]
Response: B (A≧20>B≧10>C (minute))

Query: Output 100% inhibition time range of O=C(O)Cc1nc(-c2ccc(Cl)cc2)oc1-c1ccco1 [Preparation Example 201]
Response: C (A≧20>B≧10>C (minute))

Query: Output 100% inhibition time range of CCc1nc(-c2csc(Cl)c2)[nH]c1-c1cccnc1 [Preparation example 55]
Response: B (A≧20>B≧10>C (minute))

Query: Output 100% inhibition time range of COc1ccc(-c2nc(-c3ccc(Cl)s3)c(CC(=O)O)o2)cc1 [Preparation Example 516]
Response: B (A≧20>B≧10>C (minute))
